measuredTarget: UniProtKB Q9H9B1
Sequence (Q9H9B1 1-1298): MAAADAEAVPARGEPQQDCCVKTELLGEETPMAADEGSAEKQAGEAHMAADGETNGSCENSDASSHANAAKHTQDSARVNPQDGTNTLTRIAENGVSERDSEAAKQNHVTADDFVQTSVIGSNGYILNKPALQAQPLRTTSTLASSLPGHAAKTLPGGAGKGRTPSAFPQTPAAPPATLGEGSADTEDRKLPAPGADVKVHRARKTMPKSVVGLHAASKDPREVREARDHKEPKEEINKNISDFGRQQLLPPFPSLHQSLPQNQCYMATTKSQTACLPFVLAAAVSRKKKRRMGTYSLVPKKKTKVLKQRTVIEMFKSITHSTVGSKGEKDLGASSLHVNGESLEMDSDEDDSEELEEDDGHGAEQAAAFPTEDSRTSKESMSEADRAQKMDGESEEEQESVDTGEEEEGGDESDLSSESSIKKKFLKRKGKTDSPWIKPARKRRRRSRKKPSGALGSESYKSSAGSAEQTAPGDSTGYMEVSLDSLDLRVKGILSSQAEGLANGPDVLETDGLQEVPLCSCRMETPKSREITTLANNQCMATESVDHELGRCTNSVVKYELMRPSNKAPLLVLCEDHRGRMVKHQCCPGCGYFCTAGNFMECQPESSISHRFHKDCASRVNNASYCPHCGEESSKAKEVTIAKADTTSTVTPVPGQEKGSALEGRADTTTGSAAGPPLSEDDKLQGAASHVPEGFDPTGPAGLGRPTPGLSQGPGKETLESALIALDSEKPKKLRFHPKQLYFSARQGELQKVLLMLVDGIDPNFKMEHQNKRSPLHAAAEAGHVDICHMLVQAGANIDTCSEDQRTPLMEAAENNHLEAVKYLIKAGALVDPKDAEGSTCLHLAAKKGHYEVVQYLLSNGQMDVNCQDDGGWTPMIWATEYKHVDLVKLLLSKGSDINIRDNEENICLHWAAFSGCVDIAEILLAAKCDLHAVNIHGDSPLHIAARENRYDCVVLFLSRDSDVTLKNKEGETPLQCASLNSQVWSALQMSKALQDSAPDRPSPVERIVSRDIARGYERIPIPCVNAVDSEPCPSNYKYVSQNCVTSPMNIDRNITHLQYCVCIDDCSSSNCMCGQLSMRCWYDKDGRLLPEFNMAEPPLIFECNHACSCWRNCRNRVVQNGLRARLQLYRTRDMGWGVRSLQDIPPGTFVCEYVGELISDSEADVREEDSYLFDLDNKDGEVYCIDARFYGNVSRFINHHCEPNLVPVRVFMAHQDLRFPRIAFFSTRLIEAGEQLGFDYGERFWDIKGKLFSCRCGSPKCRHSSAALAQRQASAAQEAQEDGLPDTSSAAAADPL
experimentSummary: EHMT1 enzyme assay on peptide substrate (EHMT1 PEP)
Type: biochemical
conditions: Table II; read-out: EHMT1 PEP (IC50 μM)
Answer each item with its documented IC50.

Ask: Which IC50 reading was recorded for the compound "COc1ccc(Nc2nccc(N(C)CC3CCOCC3)n2)cc1OCCCN1CCCC1" ?
Result: > 10 µM

Ask: Let us now turn to "COc1ccc(Nc2ccc3nn(C)cc3c2)cc1OCCCN1CCCC1"
Result: > 10 µM

Ask: Let us now turn to "CCCCNc1nccc(NC2CCOCC2)n1"
Result: > 10 µM

Ask: Let us now turn to "CNc1cc(C)nc(Nc2ccc(F)c(OCCCN3CCCC3)c2)n1"
Result: > 10 µM

Ask: Let us now turn to "COc1ccc(Nc2ccnc(NCC3CCNCC3)c2)cc1OCCCN1CCCC1"
Result: < 0.1 µM

Ask: Let us now turn to "COc1ccc(NCCCN2CCCC2)cc1Nc1nccc(NCC2CCOCC2)n1"
Result: > 10 µM

Ask: Let us now turn to "COc1ccc(Nc2ccnc(N(C)CC3CCN(C(C)=O)CC3)c2)cc1OCCCN1CCCC1"
Result: > 10 µM

Ask: Let us now turn to "O=C(NCCNc1ccnc(NCC2CCNCC2)n1)c1cn(C2CC2)nn1"
Result: > 10 µM

Ask: Let us now turn to "CNc1ccnc(Nc2ccc(OC)c(OCCCN3CC(F)C3)c2)n1"
Result: 1 to 10 µM

Ask: Let us now turn to CN1CCC(CNc2nccc(NCCNC(=O)c3ccc4c(c3)CC(=O)N4)n2)CC1 [Compound 101]
Result: > 10 µM

Ask: Let us now turn to "COc1ccc(Nc2nc(C)cc(C)n2)cc1OCCCN1CCCC1"
Result: > 10 µM

Ask: Let us now turn to "CNc1ccnc(Nc2ccc3c(c2)N(C(=O)CCN(C)C)CC3)n1"
Result: > 10 µM

Ask: Let us now turn to "COc1ccc(Nc2nccc(-n3nc(C)cc3C)n2)cc1OCCCN1CCCC1"
Result: > 10 µM

Ask: Let us now turn to COc1ccc(Nc2nccc(NCC3CCNCC3)n2)cc1OCCCN1CCCC1Cc1ccccc1 (stereo not shown)
Result: 1 to 10 µM

Ask: Let us now turn to "CCCCNc1ncc(-c2ccccc2)c(N)n1"
Result: > 10 µM

Ask: Let us now turn to "c1cc(Nc2nccc(NCC3CCNCC3)n2)cc(OCCCN2CCCC2)c1"
Result: 0.1 to 1 µM

Ask: Let us now turn to "CCCCNc1ccnc(NCCCN(C)C)n1"
Result: > 10 µM

Ask: Let us now turn to "COc1ccc(Nc2nccc(N3CCCNC(=O)C3)n2)cc1OCCCN1CCCC1"
Result: > 10 µM

Ask: Let us now turn to "O=C(NCCNc1ccnc(NCC2CCNCC2)n1)c1ccc2c(c1)OC(F)(F)O2"
Result: > 10 µM

Provenance of the data: patent US20210198277A1
